Cited source for all entries: patent US20180244746A1

molecular target: T1, recombinant HLA-A2 molecules (human); test: affinity measurement of recombinant HLA-A2 molecules complexed with the peptide (method not described; data not shown); ZnT8186-194 (…), the shorter epitope
T1 construct: also called HLA-A*02:01
testReadout: Kd (nM)
Provide the reading as a plain figure in nM.

Form field Kd, entry VAANIVLTV (Synthesized by ChinaPeptides at >85% purity) [ZnT8186-194 peptide (VAANIVLTV)] : 15
